Reference for the values: paper PMC12736120

Test: Plasma pharmacokinetics, QD and BID cohorts (non-compartmental)
Type: in vivo, human
Conditions: human, plasma, oral, 175 mg, QD; C1D1; plasma; read-out: Tmax, Median
measurement label: Tmax (h)
Give bare numbers, in h.

Tmax recorded for this molecule, Nc1ncc(-c2cnn(C3CCNCC3)c2)cc1-c1nnc(CC2CC2)o1 [SLC-391] , is 2

###

Assay: Plasma pharmacokinetics, QD and BID cohorts (non-compartmental)
Assay type: in vivo, human
Settings: human, plasma, oral, 110 mg, 110 mg BID, C1D1, mean, n=3, plasma; read-out: AUC0–last
measurement label: AUC(0-t) (µg·h/mL)
Answers are plain numbers, in µg·h/mL.

Entry Nc1ncc(-c2cnn(C3CCNCC3)c2)cc1-c1nnc(CC2CC2)o1 ; AUC(0-t) = 1.17

###

Assay: Plasma pharmacokinetics, QD and BID cohorts (non-compartmental)
Format: in vivo, human
Conditions: human, plasma, oral, 125 mg, QD; C1D1; plasma; read-out: AUC0–last, Mean
measurement label: AUC(0-t) (ng·h/mL)
Answers are plain numbers, in ng·h/mL.

GET /value?item= Nc1ncc(-c2cnn(C3CCNCC3)c2)cc1-c1nnc(CC2CC2)o1 [SLC-391] &field=AUC(0-t) returns 1040

###

Assay: Plasma pharmacokinetics, QD and BID cohorts (non-compartmental)
Format: in vivo, human
Conditions: human, plasma, oral, 75 mg, 75 mg BID, C1D21, median, n=3, plasma; read-out: AUC0–12
measurement label: AUC

For reference, reported AUC for Nc1ncc(-c2cnn(C3CCNCC3)c2)cc1-c1nnc(CC2CC2)o1 stands at 2290 ng·h/mL

###

Assay: Plasma pharmacokinetics, QD and BID cohorts (non-compartmental)
Format: in vivo, human
Conditions: human, plasma, oral, 125 mg, QD; C1D1; plasma; read-out: AUC0–12, Mean
measurement label: AUC (ng·h/mL)
Answers are plain numbers, in ng·h/mL.

Notebook: Nc1ncc(-c2cnn(C3CCNCC3)c2)cc1-c1nnc(CC2CC2)o1 , AUC read as 672

###

Experiment: Plasma pharmacokinetics, QD and BID cohorts (non-compartmental)
Assay type: in vivo, human
Details: human, plasma, oral, 150 mg, 150 mg BID, C1D21, median, n=6, plasma; read-out: AUC0–12
measurement label: AUC (ng·h/mL)
Give bare numbers, in ng·h/mL.

Note to self: AUC recorded for Nc1ncc(-c2cnn(C3CCNCC3)c2)cc1-c1nnc(CC2CC2)o1 was 4860

###

Assay: Plasma pharmacokinetics, QD and BID cohorts (non-compartmental)
Format: in vivo, human
Conditions: human, plasma, oral, 150 mg, 150 mg BID, C1D1, median, n=6, plasma; read-out: AUC0–last
measurement label: AUC(0-t) (ng·h/mL)
Numbers only, in ng·h/mL.

Entry Nc1ncc(-c2cnn(C3CCNCC3)c2)cc1-c1nnc(CC2CC2)o1 [SLC-391] — recorded AUC(0-t) = 1680

###

Assay: Plasma pharmacokinetics, QD and BID cohorts (non-compartmental)
Assay type: in vivo, human
Details: human, plasma, oral, 150 mg, 150 mg BID, C1D1, median, n=5, plasma; read-out: AUC0–12
measurement label: AUC (ng·h/mL)
One number for each entry, in ng·h/mL.

Recorded AUC (compound Nc1ncc(-c2cnn(C3CCNCC3)c2)cc1-c1nnc(CC2CC2)o1 ): 1070

###

Experiment: Plasma pharmacokinetics, QD and BID cohorts (non-compartmental)
Type: in vivo, human
Details: human, plasma, oral, 200 mg, 200 mg BID, C1D1, mean, n=3, plasma; read-out: Cmax
measurement label: Cmax (ng/mL)
Give bare numbers, in ng/mL.

Entry under test: Nc1ncc(-c2cnn(C3CCNCC3)c2)cc1-c1nnc(CC2CC2)o1 [SLC-391] . Its Cmax was 174

###

Assay: Plasma pharmacokinetics, QD and BID cohorts (non-compartmental)
Type: in vivo, human
Conditions: human, plasma, oral, 150 mg, QD; C1D21; plasma; read-out: AUC0–12, Median
measurement label: AUC (ng·h/mL)
Numbers only, in ng·h/mL.

Recorded result, Nc1ncc(-c2cnn(C3CCNCC3)c2)cc1-c1nnc(CC2CC2)o1 [SLC-391] , AUC: 2080

###

Test: Plasma pharmacokinetics, QD and BID cohorts (non-compartmental)
Format: in vivo, human
Conditions: human, plasma, oral, 150 mg, 150 mg BID, C1D21, median, n=6, plasma; read-out: AUC0–last
measurement label: AUC(0-t) (ng·h/mL)
Give bare numbers, in ng·h/mL.

Nc1ncc(-c2cnn(C3CCNCC3)c2)cc1-c1nnc(CC2CC2)o1 has a reported AUC(0-t) of 10000

###

Test: Plasma pharmacokinetics, QD and BID cohorts (non-compartmental)
Assay type: in vivo, human
Conditions: human, plasma, oral, 200 mg, 200 mg BID, C1D21, mean, n=2, plasma; read-out: Tmax
measurement label: Tmax
Dear colleague, please send the value followed by its unit.

Documented Tmax of Nc1ncc(-c2cnn(C3CCNCC3)c2)cc1-c1nnc(CC2CC2)o1 : 2.4 h

###

Assay: Plasma pharmacokinetics, QD and BID cohorts (non-compartmental)
Format: in vivo, human
Conditions: human, plasma, oral, 75 mg, 75 mg BID, C1D21, mean, n=3, plasma; read-out: AUC0–12
measurement label: AUC (ng·h/mL)
Numbers only, in ng·h/mL.

Recorded AUC (compound Nc1ncc(-c2cnn(C3CCNCC3)c2)cc1-c1nnc(CC2CC2)o1 ): 2290

###

Assay: Plasma pharmacokinetics, QD and BID cohorts (non-compartmental)
Format: in vivo, human
Conditions: human, plasma, oral, 200 mg, 200 mg BID, C1D1, median, n=3, plasma; read-out: Cmax
measurement label: Cmax (ng/mL)
Answers are plain numbers, in ng/mL.

// recorded Cmax for Nc1ncc(-c2cnn(C3CCNCC3)c2)cc1-c1nnc(CC2CC2)o1 : 178

###

Experiment: Plasma pharmacokinetics, QD and BID cohorts (non-compartmental)
Format: in vivo, human
Conditions: human, plasma, oral, 25 mg, QD; C1D21; plasma; read-out: Tmax, Mean
measurement label: Tmax (h)
Numbers only, in h.

Value of Tmax reported for the compound Nc1ncc(-c2cnn(C3CCNCC3)c2)cc1-c1nnc(CC2CC2)o1 is 2.7

###

Assay: Plasma pharmacokinetics, QD and BID cohorts (non-compartmental)
Type: in vivo, human
Details: human, plasma, oral, 175 mg, QD; C1D1; plasma; read-out: AUC0–last, Median
measurement label: AUC(0-t) (ng·h/mL)
Give bare numbers, in ng·h/mL.

Form: compound = Nc1ncc(-c2cnn(C3CCNCC3)c2)cc1-c1nnc(CC2CC2)o1 [SLC-391] ; AUC(0-t) = 1580

###

Assay: Plasma pharmacokinetics, QD and BID cohorts (non-compartmental)
Assay type: in vivo, human
Details: human, plasma, oral, QD, 25 mg to 150 mg; C1D21; read-out: median Tmax, range across cohorts
measurement label: Tmax

For reference, reported Tmax for Nc1ncc(-c2cnn(C3CCNCC3)c2)cc1-c1nnc(CC2CC2)o1 stands at 1.5 to 2.1 h

###

Assay: Plasma pharmacokinetics, QD and BID cohorts (non-compartmental)
Format: in vivo, human
Settings: human, plasma, oral, 100 mg, QD; C1D1; plasma; n 1; read-out: AUC0–12, Median
measurement label: AUC (ng·h/mL)
One number for each entry, in ng·h/mL.

Nc1ncc(-c2cnn(C3CCNCC3)c2)cc1-c1nnc(CC2CC2)o1 [SLC-391] yielded AUC of 1350

###

Test: Plasma pharmacokinetics, QD and BID cohorts (non-compartmental)
Format: in vivo, human
Conditions: human, plasma, oral, 200 mg, 200 mg BID, C1D1, median, n=3, plasma; read-out: Tmax
measurement label: Tmax (h)
Answers are plain numbers, in h.

Lab note: Nc1ncc(-c2cnn(C3CCNCC3)c2)cc1-c1nnc(CC2CC2)o1 [SLC-391] gave Tmax of 3.1

###

Assay: Plasma pharmacokinetics, QD and BID cohorts (non-compartmental)
Format: in vivo, human
Conditions: human, plasma, oral, after 21 days of BID dosing; read-out: Cmin, range across cohorts
Description: PK parameters were calculated by standard non-compartmental methods for SLC-391. Due to the long half-life of SLC-391 compared to the dosing interval, it was not possible to calculate a number of PK parameters, including plasma half-life and rate of elimination. Accumulation was assessed from the mean accumulation ratio factor (AR factor) calculated as the repeated dose (C1D21) mean value/single dose (C1D1) mean value for the PK parameters Cmax, AUC0–12, and AUC0–last for each dose group. […]
measurement label: concentration at 21 days

Lab note: Nc1ncc(-c2cnn(C3CCNCC3)c2)cc1-c1nnc(CC2CC2)o1 gave concentration at 21 days of 146 to 472 ng/mL

###

Assay: Plasma pharmacokinetics, QD and BID cohorts (non-compartmental)
Type: in vivo, human
Conditions: human, plasma, oral, 150 mg, QD; C1D1; plasma; read-out: Cmax, Mean
measurement label: Cmax (ng/mL)
Give bare numbers, in ng/mL.

Measured Cmax of Nc1ncc(-c2cnn(C3CCNCC3)c2)cc1-c1nnc(CC2CC2)o1 : 156
